Exercise: state measured IC50 for each of the compounds provided.
target_system: Induced myeloid leukemia cell differentiation protein Mcl-1 (Homo sapiens)
run_description: Mcl-1/Noxa binding inhibitor potency, dose response, biochemical, TR-FRET (AID 1417)
condition_parameters: Mcl-1/Noxa peptide interaction, cell-free TR-FRET (terbium/rhodamine), 2 h; measured here: absolute IC50

**Q:** Returns the measured IC50 for the input compound. Input: COCCN(CCOC)S(=O)(=O)c1ccc(C(=O)Nc2c(C)n(C)n(-c3ccccc3)c2=O)cc1
**A:** > 54000 nM

**Q:** Follow-up entry: Oc1ccc(/C=N/Nc2ccnc3cc(Cl)ccc23)c(O)c1
**A:** < 400 nM

**Q:** Follow-up entry: CCCC1=NN2C(=N)/C(=C\c3ccc(SCc4ccco4)o3)C(=O)N=C2S1
**A:** < 400 nM

**Q:** Follow-up entry: COc1cc(/C=N/NC(=O)c2cc(-c3ccco3)nc3ccccc23)cc(OC)c1O
**A:** < 400 nM

**Q:** Follow-up entry: Brc1ccc(C2Nc3cccc4cccc(c34)N2)s1
**A:** < 400 nM

**Q:** Follow-up entry: Cc1ccc(-n2c(O)c(/C=N/Nc3ccc(S(=O)(=O)N4CCOCC4)cc3[N+](=O)[O-])c3ccccc3c2=O)c(C)c1
**A:** > 54000 nM

Cited source for all entries: PubChem BioAssay AID1417
